system: Staphylococcus aureus; test: Antibacterial activity against Staphylococcus aureus ATCC 25923 at 100 mg/mL after 24 hrs by disc diffusion method; type: functional
Exercise: state measured Inhibition for each of the compounds provided.
One number for each entry, in mm.

Observe how each entry below is paired with its result.
Query: Report Inhibition for COC(=O)CC1NN=C2N(CCN2c2ccc(Cl)cc2)C1=O (configuration not stated)
Result: 10

Query: Report Inhibition for CCOC(=O)CC1NN=C2N(CCN2c2cccc(Cl)c2)C1=O (configuration not stated)
Result: 10

I have 2 compounds here; please give me Inhibition for each one.
1. COC(=O)CC1NN=C2N(CCN2c2ccc(OC)cc2)C1=O (configuration not stated)
2. COC(=O)CC1NN=C2N(CCN2c2cccc(Cl)c2)C1=O (configuration not stated)

Result:
1. 10
2. 16

Query: Report Inhibition for COC(=O)CC1NN=C2N(CCN2c2ccccc2)C1=O (configuration not stated)
Result: 10
